Known MDCK^2 of a selection of compounds
System: MDCK(MDR) monolayers
Experiment: in vitro
Conditions: MDCK-MDR1
Description: The present invention is directed to the use of a new in vitro model for evaluating the ability of a drug molecule to penetrate the cornea. […] The MDCK permeability values of drug molecules can be determined by means of known methods, such as the methods described in the following scientific articles: • 1. […] In vitro MDCK cell permeability. […] To ensure monolayer integrity, the trans epithelial electrical resistance (TEER) was measured. […]
metric: MDCK^2

>>> meas_value("CC(C)NCC(O)COc1ccc(CCOCC2CC2)cc1 (stereo not drawn) [Betaxolol]")
40804
>>> meas_value("NC(=O)Cc1cccc(C(=O)c2ccccc2)c1N [Nepafenac]")
32761
>>> meas_value("CC[C@@H]1C(=O)OC[C@@H]1Cc1cncn1C [Pilocarpine]")
1354.24
